target: Solute carrier organic anion transporter family member 1B3 (Homo sapiens); conditions: chinese hamster, cho, 10 µM
Sequence (Q9NPD5 whole entry): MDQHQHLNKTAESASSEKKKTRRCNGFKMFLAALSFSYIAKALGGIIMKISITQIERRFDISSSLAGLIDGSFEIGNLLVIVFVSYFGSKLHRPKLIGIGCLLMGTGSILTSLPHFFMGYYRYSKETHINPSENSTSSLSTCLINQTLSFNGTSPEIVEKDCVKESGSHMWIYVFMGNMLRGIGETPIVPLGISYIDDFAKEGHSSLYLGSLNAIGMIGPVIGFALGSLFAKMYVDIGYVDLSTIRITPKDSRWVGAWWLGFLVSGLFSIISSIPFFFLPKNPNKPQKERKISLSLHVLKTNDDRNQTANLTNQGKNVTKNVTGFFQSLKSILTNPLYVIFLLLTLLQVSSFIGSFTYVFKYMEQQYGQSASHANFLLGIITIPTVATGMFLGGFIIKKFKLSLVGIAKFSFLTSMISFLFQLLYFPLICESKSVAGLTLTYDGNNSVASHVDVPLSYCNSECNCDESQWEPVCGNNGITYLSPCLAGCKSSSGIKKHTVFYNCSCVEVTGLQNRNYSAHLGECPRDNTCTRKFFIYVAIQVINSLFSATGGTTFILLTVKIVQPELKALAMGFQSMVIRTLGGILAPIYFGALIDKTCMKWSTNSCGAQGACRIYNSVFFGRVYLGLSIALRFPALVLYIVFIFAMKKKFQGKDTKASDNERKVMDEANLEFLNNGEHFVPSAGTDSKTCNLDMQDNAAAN
Parameter: residual activity (%)
Give the value in % but do not write % after it.

Look up residual activity for this compound: COC1=C[C@@H](C)[C@@H]2C[C@H]3OC(=O)C[C@H]4C(C)=C(OC)C(=O)[C@H]([C@@]2(C)C1=O)[C@@]34C
100.5

Look up residual activity for this compound: O=C/C=C/c1ccc(O)cc1 [p-HYDROXYCINNAMALDEHYDE]
70.79

Look up residual activity for this compound: NC(=O)N/N=C/c1ccc([N+](=O)[O-])o1
98.78

Look up residual activity for this compound: CC(=O)[C@@]1(O)CC[C@H]2[C@@H]3C[C@H](C)C4=CC(=O)C=C[C@]4(C)[C@@]3(F)[C@@H](O)C[C@@]21C
105.7

Look up residual activity for this compound: COc1ccc2c(c1)O[C@H]1c3ccc(OC)cc3OC[C@@H]21
109.3

Look up residual activity for this compound: COc1ccc([C@@H]2CC(=O)c3c(O)cc(O)cc3O2)cc1O
113.3

Look up residual activity for this compound: COC(=O)C1=CO[C@@H](O[C@@H]2O[C@H](CO)[C@@H](O)[C@H](O)[C@H]2O)[C@@H]2[C@@H](C)[C@@H](O)C[C@H]12
87.42

Look up residual activity for this compound: CC(C)=CCC[C@]1(C)C=Cc2c(O)c3c(c(CC=C(C)C)c2C1)O[C@]12C(=C[C@@H]4C[C@H]1C(C)(C)O[C@@]2(C/C=C(/C)C(N)=O)C4=O)C3=O
70.77

Look up residual activity for this compound: CC1/C(=N/O)C[C@@H]2C[C@H]1C2(C)C (stereo not given in full)
123

Look up residual activity for this compound: CNC(=O)Oc1ccccc1OC(C)C
109.6

Look up residual activity for this compound: CCCCCC(=O)Cc1cc(O)cc(O)c1C(=O)Oc1cc(CC(=O)CCCCC)c(C(=O)O)c(OC)c1
96.29

Look up residual activity for this compound: CC(=O)O[C@H]1CC[C@@]2(C)[C@H](CC[C@@H]3[C@@H]2CC[C@]2(C)[C@@H](C4=CC(=O)OC4)[C@@H](OC(C)=O)C[C@]32O)C1 [GITOXIGENIN DIACETATE]
118.5

Look up residual activity for this compound: C[N+](C)(C)CCOP(=O)(O)OP(=O)([O-])OC[C@H]1O[C@@H](n2ccc(N)nc2=O)[C@H](O)[C@@H]1O
69.94

Look up residual activity for this compound: COc1ccc([C@@H]2CC(=O)c3c(O)cc(O[C@@H]4O[C@H](CO[C@@H]5O[C@@H](C)[C@H](O)[C@@H](O)[C@H]5O)[C@@H](O)[C@H](O)[C@H]4O)cc3O2)cc1O
110.2

Look up residual activity for this compound: CCOC(=O)C1=C[C@]2(CC)CCCN3CCc4c(n1c1ccccc41)[C@@H]32
109.4

Look up residual activity for this compound: O=C(O[C@@H]1Cc2c(O)cc(O)cc2O[C@@H]1c1cc(O)c(O)c(O)c1)c1cc(O)c(O)c(O)c1 [EPIGALOCATECHIN GALLATE]
45.88

Look up residual activity for this compound: C[C@]12CC[C@H](O)C[C@@H]1CC[C@@H]1[C@@H]2CC[C@]2(C)C(=O)CC[C@@H]12 [EPIANDROSTERONE]
91.34

Look up residual activity for this compound: O=C1C[C@@H](c2ccccc2)Oc2cc(O)cc(O)c21
97.25

Look up residual activity for this compound: COc1c2c(c(CC=C(C)C)c3oc(=O)c(-c4ccc(O)cc4)c(O)c13)OC(C)(C)C=C2
36.3

Look up residual activity for this compound: CC(C)NC(=N)NC(=N)Nc1ccc(Cl)cc1.Cl [PROGUANIL HYDROCHLORIDE]
114.8

Look up residual activity for this compound: C[C@]12CCC(=O)C=C1C=C[C@@H]1[C@@H]2CC[C@@]2(C)[C@H]1CC[C@@]21CCC(=O)O1
78.65

Look up residual activity for this compound: C[C@H](C(=O)O)[C@H]1CC[C@H]2[C@@H]3CC=C4C[C@@H](O)CC[C@]4(C)[C@H]3CC[C@]12C
83.58

Look up residual activity for this compound: COC(=O)Nc1nc2ccc(Sc3ccccc3)cc2[nH]1
102.5

Look up residual activity for this compound: CC(=O)Nc1ccc(S(=O)(=O)Nc2ccc([N+](=O)[O-])cc2)cc1
88.89

Look up residual activity for this compound: COc1cccc2c1cc([N+](=O)[O-])c1c(C(=O)O)cc3c(c12)OCO3
107.6

Look up residual activity for this compound: COc1ccc(-c2cc(=O)c3c(OC)c(OC)c(OC)c(OC)c3o2)cc1OC
133.3

Look up residual activity for this compound: Nc1ccc(S(=O)(=O)NC(=O)c2ccccc2)cc1 [SULFABENZAMIDE]
94.35

Look up residual activity for this compound: C=C(C)[C@@H]1CC[C@]2(CO)CC[C@]3(C)[C@H](CC[C@@H]4[C@@]5(C)CC[C@H](O)C(C)(C)[C@@H]5CC[C@]43C)[C@@H]12
92.43

Look up residual activity for this compound: C=C1C2=CC(=O)O[C@@H](c3ccoc3)[C@]2(C)CCC1[C@@]1(C)C=CC(=O)C(C)(C)[C@@H]1CC(=O)OC (stereo not given in full)
42.8

Look up residual activity for this compound: C=C(C)[C@@H]1CC[C@]2(C(=O)O)CC[C@]3(C)[C@H](CC[C@@H]4[C@@]5(C)CC[C@H](O)C(C)(C)[C@@H]5CC[C@]43C)[C@@H]12
38.62
